target: oncogenic mutant K-Ras (mGFP-K-Ras G12V) (Homo sapiens, UniProt P01116, G12V); assay type: cell-based, canine; settings: MDCK cells stably expressing mGFP-KRasG12V and mCherry-CAAX, 48 h
Catalogue of Emax (highest Manders coefficient, maximum extent of K-Ras PM mislocalisation) readings, one per entry.
reportedProperty: Emax (highest Manders coefficient, maximum extent of K-Ras PM mislocalisation)

{"molecule": "CC[C@@H]1C=CC=CC[C@H](C)[C@@H](O)[C@@H](C)C(=O)[C@H](C)[C@@H](O)[C@H](C)C(=O)[C@H](C)[C@@H](O)[C@H](C)C=CC(=O)O[C@H]2[C@@H](C)[C@@H](CC1)O[C@@]1(CC[C@@H](C)[C@@H](C[C@H](C)O)O1)[C@@H]2C", "numericValue": 0.72}
{"molecule": "CC[C@H]1/C=C/C=C/C[C@@H](C)[C@H](O)[C@@](C)(O)C(=O)[C@@H](C)[C@H](O)[C@@H](C)C(=O)[C@@H](C)[C@H](O)[C@@H](C)/C=C/C(=O)O[C@@H]2[C@H](C)[C@H](C[C@H]1O)O[C@]1(CC[C@H](C)[C@H](C[C@@H](C)O)O1)[C@H]2C [compound 6, 21-hydroxy-oligomycin A]", "numericValue": 0.76}
{"molecule": "CC[C@H]1/C=C/C=C/C[C@@H](C)[C@H](O)[C@@](C)(O)C(=O)[C@@H](C)[C@H](O)[C@@H](C)C(=O)[C@@H](C)[C@H](O)[C@@H](C)/C=C/C(=O)O[C@@H]2[C@H](C)[C@H](CC1)O[C@@]1(O[C@@H](C[C@@H](C)O)[C@@H](C)CC1=O)[C@]2(C)O", "numericValue": 0.73}
{"molecule": "CC[C@H]1/C=C/C=C/C[C@@H](CO)[C@H](O)[C@@](C)(O)C(=O)[C@@H](C)[C@H](O)[C@@H](C)C(=O)[C@@H](C)[C@H](O)[C@@H](C)/C=C/C(=O)O[C@@H]2[C@H](C)[C@H](CC1)O[C@@]1(O[C@@H](C[C@@H](C)O)[C@@H](C)CC1=O)[C@H]2C [compound 8, 40-hydroxy-oligomycin B]", "numericValue": 0.73}
{"molecule": "CC[C@H]1/C=C/C=C/C[C@@H](C)[C@H](O)[C@H](C)C(=O)[C@@H](C)[C@H](O)[C@@H](C)C(=O)[C@@H](C)[C@H](O)[C@@H](C)/C=C/C(=O)O[C@@H]2[C@H](C)[C@H](C[C@H]1O)O[C@]1(CC[C@H](C)[C@H](C[C@@H](C)O)O1)[C@H]2C [compound 7, 21-hydroxy-oligomycin C]", "numericValue": 0.68}
{"molecule": "CC[C@H]1/C=C/C=C/C[C@@H](C)[C@H](O)[C@@](C)(O)C(=O)[C@@H](C)[C@H](O)[C@@H](C)C(=O)[C@@H](C)[C@H](O)[C@@H](C)/C=C/C(=O)O[C@@H]2[C@H](C)[C@H](CC1)O[C@@]1(O[C@@H](C[C@@H](C)O)[C@@H](C)CC1=O)[C@H]2C", "numericValue": 0.67}
{"molecule": "CC[C@H]1/C=C/C=C/C[C@@H](C)[C@H](O)[C@@](C)(O)C(=O)[C@@H](C)[C@H](O)[C@@H](C)C(=O)[C@@H](C)[C@H](O)[C@@H](C)/C=C/C(=O)O[C@H]2C[C@@]3(CC[C@H](C)[C@H](C[C@@H](C)O)O3)O[C@@H](CC1)[C@H]2C", "numericValue": 0.72}

====

target: oncogenic mutant K-Ras (mGFP-K-Ras G12V) (Homo sapiens, UniProt P01116, G12V); conditions: read-out: IC50 (concentration needed for 50% PM mislocalisation); MDCK cells stably expressing mGFP-KRasG12V and mCherry-CAAX, 48 h
pIC50: −log10 of the molar value.
Catalogue of pIC50 readings, one per entry.

{"molecule": "CC[C@H]1/C=C/C=C/C[C@@H](CO)[C@H](O)[C@@](C)(O)C(=O)[C@@H](C)[C@H](O)[C@@H](C)C(=O)[C@@H](C)[C@H](O)[C@@H](C)/C=C/C(=O)O[C@@H]2[C@H](C)[C@H](CC1)O[C@@]1(O[C@@H](C[C@@H](C)O)[C@@H](C)CC1=O)[C@H]2C [compound 8, 40-hydroxy-oligomycin B]", "pIC50": 8.23}
{"molecule": "CC[C@H]1/C=C/C=C/C[C@@H](C)[C@H](O)[C@@](C)(O)C(=O)[C@@H](C)[C@H](O)[C@@H](C)C(=O)[C@@H](C)[C@H](O)[C@@H](C)/C=C/C(=O)O[C@@H]2[C@H](C)[C@H](C[C@H]1O)O[C@]1(CC[C@H](C)[C@H](C[C@@H](C)O)O1)[C@H]2C [compound 6, 21-hydroxy-oligomycin A]", "pIC50": 8.32}
{"molecule": "CC[C@H]1/C=C/C=C/C[C@@H](C)[C@H](O)[C@@](C)(O)C(=O)[C@@H](C)[C@H](O)[C@@H](C)C(=O)[C@@H](C)[C@H](O)[C@@H](C)/C=C/C(=O)O[C@H]2C[C@@]3(CC[C@H](C)[C@H](C[C@@H](C)O)O3)O[C@@H](CC1)[C@H]2C", "pIC50": 8.46}
{"molecule": "CC[C@H]1/C=C/C=C/C[C@@H](C)[C@H](O)[C@@](C)(O)C(=O)[C@@H](C)[C@H](O)[C@@H](C)C(=O)[C@@H](C)[C@H](O)[C@@H](C)/C=C/C(=O)O[C@@H]2[C@H](C)[C@H](CC1)O[C@@]1(O[C@@H](C[C@@H](C)O)[C@@H](C)CC1=O)[C@]2(C)O", "pIC50": 8.31}
{"molecule": "CC[C@H]1/C=C/C=C/C[C@@H](C)[C@H](O)[C@@](C)(O)C(=O)[C@@H](C)[C@H](O)[C@@H](C)C(=O)[C@@H](C)[C@H](O)[C@@H](C)/C=C/C(=O)O[C@@H]2[C@H](C)[C@H](CC1)O[C@@]1(O[C@@H](C[C@@H](C)O)[C@@H](C)CC1=O)[C@H]2C", "pIC50": 8.45}
{"molecule": "CC[C@H]1/C=C/C=C/C[C@@H](C)[C@H](O)[C@H](C)C(=O)[C@@H](C)[C@H](O)[C@@H](C)C(=O)[C@@H](C)[C@H](O)[C@@H](C)/C=C/C(=O)O[C@@H]2[C@H](C)[C@H](C[C@H]1O)O[C@]1(CC[C@H](C)[C@H](C[C@@H](C)O)O1)[C@H]2C [compound 7, 21-hydroxy-oligomycin C]", "pIC50": 7.85}
